Attribute: IC50
biological target: His-tagged N-terminal ATP binding domain (amino acid residues 9-236) of HSP90α (Homo sapiens, UniProt P07900); experiment: HSP90 inhibitor binding potency: TRF competition binding assay; conditions: Table II; read-out: Hsp90 IC50 Range

# compound, IC50
rows = [
    ("COc1nc(-c2cc(F)ccc2C2CC(=O)c3c(C)nc(N)nc3C2)cnc1F (stereo not drawn) [Compound 233]", "< 1 µM"),
    ("Nc1nc(CCc2ccccc2)c2c(n1)CC(c1ccccc1)CC2=O (stereo not drawn) [Compound 305]", "> 10 µM"),
    ("Cc1nc(N)nc2c1C(=O)CC(c1ncccc1OC1CCCC1)C2 (stereo not drawn) [Compound 178]", "< 1 µM"),
    ("CCC(CC)Oc1cc(F)ccc1C1CC(=O)c2c(C)nc(N)nc2C1 (stereo not drawn) [Compound 267]", "< 1 µM"),
    ("Cc1nc(N)nc2c1C(=O)C(C)C(c1ccccc1)C2 (stereo not drawn) [Compound 248]", "< 1 µM"),
    ("CCc1nc(N)nc2c1C(=O)CC(c1ccc(F)cc1-c1cnc(OC)c(OC)n1)C2 (stereo not drawn) [Compound 324]", "< 1 µM"),
]
